Data origin: the supplement of paper PMC6897291

# System: U-2932
# TEST PROTOCOL: growth inhibition by drug alone (1 - RLU/untreated control) (fraction); higher = stronger inhibition
# EXPERIMENTAL SETUP: 1000 nM; time (day): 6; 177Lu-lilotomab satetraxetan 0 ug/ml
# key: entry, value: growth inhibition by drug alone
Answer as a number with no unit attached.

O=C(O)C(Cc1c[nH]c2ccccc12)N1C(=O)c2ccccc2C1=O (stereo unspecified)	-0.115
Cc1c(CCOc2ccc(C(=O)O)cc2)c2cc(Cl)ccc2n1C(c1ccccc1)c1ccccc1	-0.133
CO[C@H]1C[C@@H]2CC[C@@H](C)[C@@](O)(O2)C(=O)C(=O)N2CCCC[C@H]2C(=O)O[C@H]([C@H](C)C[C@@H]2CC[C@@H](O)[C@H](OC)C2)CC(=O)[C@H](C)/C=C(\C)[C@@H](O)[C@@H](OC)C(=O)[C@H](C)C[C@H](C)/C=C/C=C/C=C/1C [Rapamycin (Sirolimus)]	0.599

Query block: Which growth inhibition by drug alone value belongs to O=C(CCCCCCC(=O)Nc1ccccc1)NO [Vorinostat (SAHA)] ?
Result block: 0.615

Query block: Which growth inhibition by drug alone value belongs to `Nc1ccn([C@@H]2O[C@H](CO)[C@@H](O)[C@@H]2O)c(=O)n1` ?
Result block: 0.6

Query block: Which growth inhibition by drug alone value belongs to Cn1cnc2c(F)c(Nc3ccc(Br)cc3Cl)c(C(=O)NOCCO)cc21 [AZD6244 (Selumetinib)] ?
Result block: 0.127

----------
# key: entry, value: growth inhibition by drug alone
# System: U-2932
# TEST PROTOCOL: growth inhibition by drug alone (1 - RLU/untreated control) (fraction); higher = stronger inhibition
# EXPERIMENTAL SETUP: 10 nM; time (day): 4; 177Lu-lilotomab satetraxetan 0 ug/ml

CC[C@H](Nc1ncnc2[nH]cnc12)c1nc2cccc(F)c2c(=O)n1-c1ccccc1	-0.000402

Query block: Fill in the recorded growth inhibition by drug alone for this molecule, with U-2932 as test system: `COc1cc(C(=O)NC(=S)Nc2cccc(NC(=O)c3ccccc3)c2)cc(OC)c1OC`
Result block: 0.139

Query block: Fill in the recorded growth inhibition by drug alone for this molecule, with U-2932 as test system: `Oc1nc(-c2ccc(C(F)(F)F)cc2)nc2c1CSCC2`
Result block: 0.0499

Query block: Fill in the recorded growth inhibition by drug alone for this molecule, with U-2932 as test system: C[S+]([O-])c1ccc(-c2nc(-c3ccc(F)cc3)c(-c3ccncc3)[nH]2)cc1 (stereo unspecified)
Result block: 0.0691

----------
# System: RIVA
# TEST PROTOCOL: growth inhibition by drug alone (1 - RLU/untreated control) (fraction); higher = stronger inhibition
# EXPERIMENTAL SETUP: 10 nM; time (day): 4; 177Lu-lilotomab satetraxetan 0 ug/ml
TEST READOUT: growth inhibition by drug alone
Answer as a number with no unit attached.

// worked examples, growth inhibition by drug alone included
N#Cc1ccc(C(c2ccc(C#N)cc2)n2cncn2)cc1	-0.245
Cc1ccc(C(=O)Nc2ccc(CN3CCN(C)CC3)c(C(F)(F)F)c2)cc1C#Cc1cnc2cccnn12	-0.226
NC(=O)c1ccc(I)c([N+](=O)[O-])c1	-0.257
Nc1nc2[nH]cc(CCc3ccc(C(=O)N[C@@H](CCC(=O)O)C(=O)O)cc3)c2c(=O)[nH]1	-0.198
Nc1[nH]nc2nnc(-c3c(-c4ccccc4)nn4ccccc34)cc12	0.104

Query block: Which growth inhibition by drug alone value belongs to `O=C(O)c1ccc2cc(-c3ccc(O)c(C45CC6CC(CC(C6)C4)C5)c3)ccc2c1` ?
Result block: 0.0377

Query block: Which growth inhibition by drug alone value belongs to CC(=O)O[C@]1(C(C)=O)CC[C@H]2[C@@H]3C=C(C)C4=CC(=O)CC[C@]4(C)[C@H]3CC[C@@]21C [Megestrol Acetate] ?
Result block: -0.0102

Query block: Which growth inhibition by drug alone value belongs to `CCOC(=O)C1=C[C@]2(CC)CCCN3CCc4c(n1c1ccccc41)[C@@H]32` ?
Result block: -0.13

Query block: Which growth inhibition by drug alone value belongs to `COc1cc(Nc2ncc(F)c(Nc3ccc4c(n3)N(COP(=O)(O)O)C(=O)C(C)(C)O4)n2)cc(OC)c1OC` ?
Result block: -0.134

Query block: Which growth inhibition by drug alone value belongs to COc1ccc(COc2cc3oc(=O)c4cc(C(C)O)ccc4c3cc2OC)cc1 (stereo unspecified) ?
Result block: 0.0604

Query block: Which growth inhibition by drug alone value belongs to `CN(C)CCCN=c1c2ccccc2n(C)c2[nH]c(=O)n(C)c(=O)c12` ?
Result block: 0.0541

Query block: Which growth inhibition by drug alone value belongs to `Cc1ccc(NC(=O)c2ccc(CN3CCN(C)CC3)cc2)cc1Nc1nccc(-c2cccnc2)n1` ?
Result block: -0.0897

Query block: Which growth inhibition by drug alone value belongs to N#CC(c1ccnc(NCCc2cccnc2)n1)c1nc2ccccc2s1 (stereo unspecified) ?
Result block: -0.269

Query block: Which growth inhibition by drug alone value belongs to `CC(=O)O[C@@]12CO[C@@H]1C[C@H](O)[C@@]1(C)C(=O)[C@H](O)C3=C(C)[C@@H](OC(=O)[C@H](O)[C@@H](NC(=O)OC(C)(C)C)c4ccccc4)C[C@@](O)([C@@H](OC(=O)c4ccccc4)[C@H]21)C3(C)C` ?
Result block: 0.967

Query block: Which growth inhibition by drug alone value belongs to `Cc1ccc([C@@H]2O[C@H](CO)[C@@H](O)[C@H](O)[C@H]2O)cc1Cc1ccc(-c2ccc(F)cc2)s1` ?
Result block: -0.106

Query block: Which growth inhibition by drug alone value belongs to COc1cc(Nc2ncc(F)c(Nc3ccc4c(n3)NC(=O)C(C)(C)O4)n2)cc(OC)c1OC [R406(free base)] ?
Result block: -0.0293
